- Test system: LOX IMVI melanoma
- ASSAY: NCI tumour cell line growth inhibition, 48 h
PROPERTY_MEASURED: TGI (µM)
Enter your answer as a number in µM; do not include the unit.

Task item: Dear colleague, please send me the reported TGI for CN(C)c1ccccc1CN1CCCN(Cc2ccccc2N(C)C)C1c1ccncc1 when you can.
Reply: 28.4

Task item: Read off the recorded TGI for COc1ccc(Nc2c3ccccc3nc3ccccc23)cc1
Reply: 4.81

Task item: Using the record for O=C(Cc1nc2ccccc2s1)Nc1cccc(C(F)(F)F)c1 , state its measured TGI.
Reply: 26.2

Task item: Look up and state reported TGI for Oc1[nH]c2ccc(Cl)cc2c1/C=c1/ccc2c(c1)N=C(c1ccc(F)cc1)N=2
Reply: 3.01

Task item: Please indicate TGI recorded for O=C(CC1(O)C(=O)Nc2c(Cl)cc(Cl)cc21)c1cccc2ccccc12 (stereo not given)
Reply: 32.5

Task item: Retrieve TGI measured for O=C(NP(=O)(N1CC1)N1CC1)c1cc(I)ccc1I and print it.
Reply: 54.8

---

- Tested on: OVCAR-3 ovarian
- ASSAY: NCI tumour cell line growth inhibition, 48 h
PROPERTY_MEASURED: TGI

Task item: Tell me TGI reported for Nc1nc(-c2ccccc2)nc(N)c1N=O
Reply: 14 µM

Task item: Read the entry Clc1ccc(C2SCc3nc4ccccc4n32)cc1Cl (stereo not given) and write its reported TGI.
Reply: 22.5 µM

Task item: Give TGI for CN1c2ccccc2C(C)(C)C12C=Cc1cc(O)ccc1O2 (stereo not given)
Reply: 5.23 µM

Task item: Item COc1ccc(OC)c(CC2CCc3nc(N)nc(N)c3C2)c1 (stereo not given) : provide TGI
Reply: > 100 µM

Task item: Quote TGI reported for N#CCCN(CCC#N)c1ccc(/C=C2\N=C(c3ccccc3)N(NC(N)=S)C2=O)cc1 please.
Reply: > 100 µM

Task item: Tell me measured TGI for COc1cc(/C=C/C(=O)c2ccc(NC(=O)CN3CCN(c4cc5c(cc4F)c(=O)c(C(=O)O)cn5C4CC4)CC3)cc2)cc(OC)c1OC please.
Reply: 1.37 µM

Task item: Tell me its TGI given COc1ccc(C(SCCO)(c2ccccc2)c2ccccc2)cc1 as the entry.
Reply: 31.8 µM

Task item: Look up TGI of CN1CCC(CN2c3ccccc3Sc3ccccc32)CC1 and report it.
Reply: 29 µM

Task item: Fill in TGI for record O=C(Cn1ccnc1[N+](=O)[O-])c1ccc(F)cc1
Reply: > 100 µM

Task item: Output TGI of COc1cc2c3c(c1OC)-c1c(ccc4c1OCO4)CC3(C#N)N(C(=O)c1ccccc1)CC2 (stereo not given)
Reply: > 100 µM

Task item: Consider the compound CC1(C)Cc2cc(C(=O)O)c3c(c2C1=O)COCC3 . State its measured TGI.
Reply: > 100 µM

Task item: Answer with the recorded TGI of CC(=O)O[C@]1(C(C)=O)CC[C@H]2[C@@H]3C=C(C)C4=CC(=O)CC[C@]4(C)[C@H]3CC[C@@]21C only.
Reply: > 100 µM

Task item: Give the reported value of TGI for this record: COC(=O)CCC(=O)CC(=O)C(=O)Nc1c(Cl)cc([N+](=O)[O-])cc1Cl
Reply: > 100 µM

Task item: Give TGI for Fc1ccc(Nc2nc3nonc3nc2Nc2ccc(F)cc2)cc1
Reply: 11 µM

Task item: Fill in TGI for record CC1(CCCO)CCCCCCCCCC(C)(CCCO)C1=O (stereo not given)
Reply: > 100 µM

Task item: Give the reported value of TGI for this record: CCOC(=O)C1=C(C)N(c2ccc(C)cc2)C2=C(C(=O)N(c3ccccc3)C2c2ccccc2)C1c1ccccc1 (stereo not given)
Reply: > 25 µM

Task item: Look up TGI of c1cc(CNCCN2CCNCC2)ccn1 and report it.
Reply: > 100 µM

Task item: Specify measured TGI for CC(=O)OC(CCC1(C)OC1COc1ccc(CCNC(=O)c2ccccc2)cc1)C(C)(C)OC(C)=O (stereo not given) .
Reply: 54.5 µM

Task item: Please report the measured TGI for COCCCNC(=O)CC(=O)NCCCOC
Reply: > 100 µM

Task item: Report measured TGI; entry is CC1(C)[C@@H](O[C@@H]2OC[C@@H](O[C@@H]3O[C@H](CO)[C@@H](O)[C@H](O)[C@H]3O[C@@H]3OC[C@@H](O)[C@H](O)[C@H]3O)[C@H](O)[C@H]2O[C@@H]2O[C@H](CO)[C@@H](O)[C@H](O)[C@H]2O)CC[C@]2(C)[C@H]3CC[C@]45OC[C@@]6(CC[C@](C)(C=O)C[C@H]64)[C@H](O)C[C@@]5(C)[C@]3(C)CC[C@@H]12
Reply: 2.06 µM

Task item: Return reported TGI. Input compound: O=C(O)c1cccc(N=Nc2c(S(=O)(=O)O)ccc3c2C(=O)c2ccccc2C3=O)c1O
Reply: > 100 µM

Task item: Identify measured TGI corresponding to Fc1ccc2nc3n(c2c1)C(c1c(Cl)cccc1Cl)SC3 (stereo not given)
Reply: > 100 µM

Task item: // Input: c1ccc2c(c1)ncn2C1CCCCO1 (stereo not given) . Output its TGI only.
Reply: > 100 µM

Task item: Please give the documented TGI of CN1C(=O)[C@@H]2[C@@H]3c4ccccc4N(S(=O)(=O)C(F)(F)F)[C@@H]3c3[nH]c4ccccc4c3[C@@H]2C1=O
Reply: > 100 µM

Task item: Could you please provide reported TGI for COc1cc(/C=C/C(=O)c2c(C)nc3ccccc3c2C)ccc1OCCCOc1cc2c(cc1OC)C(=O)N1CCC[C@H]1C=N2 ? Thanks!
Reply: 0.0556 µM

Task item: Specify TGI for C=C1CCC2C(C)(C)CCC[C@]2(C)[C@H]1CO (stereo not given in full) and stop.
Reply: > 100 µM

Task item: Return reported TGI. Input compound: CCOC(=O)Cc1nc2sc(S(N)(=O)=O)nn2c1Br
Reply: 98.5 µM

Task item: Kindly indicate its recorded TGI. Item: Oc1[nH]c2ccc(Cl)cc2c1/C=c1/ccc2c(c1)N=C(c1ccc(F)cc1)N=2
Reply: 3.58 µM

Task item: Tell us which TGI value is on record for O=C1CCCC/C1=C\c1ccc(Br)cc1
Reply: 44.3 µM

Task item: State its TGI for this compound: Cc1cc(Cc2c(F)c(F)c(C(c3cc(C)no3)c3c(F)c(F)c(F)c(F)c3F)c(F)c2F)on1 (stereo not given)
Reply: > 100 µM

Task item: Give me measured TGI, please, for this compound: Cc1cccnc1/N=C/c1c(O)n(C)c(=O)[nH]c1=O
Reply: > 100 µM

Task item: Output measured TGI for this item: Cc1cc(C)c2c(n1)S(=O)(=O)N(CCCN1CCN(c3cccc(C(F)(F)F)c3)CC1)c1c-2nn(C)c1C
Reply: > 100 µM

Task item: Tell us which TGI value is on record for Cc1c2cnccc2c(C)c2c1c1ccccc1n2CCCCCCNCc1ccccc1
Reply: 4.01 µM

Task item: Report TGI, nothing else, for this compound: COc1cc(OC)c(C2CC=Cc3c(OC)cc(OC)c(OC)c32)cc1OC (stereo not given)
Reply: > 100 µM

Task item: State its TGI for this compound: COc1cc(C2C(C(=O)O)=C(COC(C)=O)Oc3cc4c(cc32)OCO4)cc(OC)c1OC (stereo not given)
Reply: > 100 µM

Task item: # return recorded TGI for input N#C/C(=C\NC(=S)c1ccncc1)c1nc2ccccc2s1
Reply: > 100 µM

Task item: Consider the compound COC(=O)/C=C/c1ccc2c(c1)CC1(C2)Cc2cc3c(cc2C1=O)CCC3 (stereo not given) . State its measured TGI.
Reply: 43.7 µM

Task item: Tell me TGI reported for O=C1/C(=C/c2ccc(Cl)cc2)N=C(c2ccccc2)N1CCc1cccs1
Reply: > 100 µM

Task item: Give me measured TGI, please, for this compound: CSc1ccc(NC(=S)NN(C)C)cc1
Reply: > 10 µM

Task item: Report TGI for CCOC(=O)NC(NC1=NCCS1)(C(=O)OCC)C(F)(F)F (stereo not given)
Reply: > 100 µM
